Where do the numbers come from? From patent US20250236614A1.

Recorded measurements of pEC50, one per entry
Test system: primary human T-cells
ASSAY_TEXT: IL2 secretion measurements in CD3-stimulated T-cells
Type: cell-based
RUN_CONDITIONS: Homo sapiens, T-cell; isomer A; CD3 antibody-stimulated T-cells, IL2 in supernatant after 24 hours; read-out: Tcell IL2 CD3 EC50
pEC50: −log10 of the molar value.
ASSAY_READOUT: pEC50

[[record]]
molecule = "CC(C)(C#N)c1nnc(-c2cc3c(cc2F)C(F)(F)CC(N)C(=O)N3Cc2ccc(-n3cc(C(F)(F)F)cn3)cc2)o1 (racemic) [Example 33]"
tested_on = "primary human T-cells"
assay_readout = "pEC50"
comparison_symbol = "="
measured = 6.62

[[record]]
molecule = "CC(C)(C#N)c1nnc(-c2cc3c(cc2F)C(F)(F)C[C@@H](N)C(=O)N3Cc2ccc(-c3ncc(C(F)(F)F)cc3F)cc2)o1 (single isomer, unassigned) [Example 19]"
tested_on = "primary human T-cells"
assay_readout = "pEC50"
comparison_symbol = "<"
measured = 5.56

[[record]]
molecule = "CC(C)(c1nnc(-c2cc3c(cc2F)C(F)(F)C[C@@H](N)C(=O)N3Cc2ccc(-c3ccc(C(F)(F)F)cc3)cc2)o1)S(C)(=O)=O (single isomer, unassigned) [Example 32]"
tested_on = "primary human T-cells"
assay_readout = "pEC50"
comparison_symbol = "="
measured = 6.22

[[record]]
molecule = "CC(C)(c1nnc(-c2cc3c(cc2F)C(F)(F)C[C@@H](N)C(=O)N3Cc2ccc(-n3cc(C(F)(F)F)cn3)cc2)o1)S(C)(=O)=O (single isomer, unassigned) [Example 29]"
tested_on = "primary human T-cells"
assay_readout = "pEC50"
comparison_symbol = "<"
measured = 5.00

[[record]]
molecule = "COCCN1CC(c2nnc(-c3cc4c(cc3F)C(F)(F)C[C@@H](N)C(=O)N4Cc3ccc(-c4ccc(C(F)(F)F)cn4)cc3)o2)CC(F)(F)C1 (single isomer, unassigned) [Example 34]"
tested_on = "primary human T-cells"
assay_readout = "pEC50"
comparison_symbol = "<"
measured = 5.00

[[record]]
molecule = "CC(C)(c1nnc(-c2cc3c(cc2F)C(F)(F)C[C@@H](N)C(=O)N3Cc2ccc(-n3cnc(C(F)(F)F)n3)cc2)o1)S(C)(=O)=O (single isomer, unassigned) [Example 23]"
tested_on = "primary human T-cells"
assay_readout = "pEC50"
comparison_symbol = "<"
measured = 5.56

[[record]]
molecule = "CC(C)(C#N)c1nnc(-c2cc3c(cc2F)C(F)(F)C[C@@H](N)C(=O)N3Cc2ccc(-c3ccc(C(F)(F)F)cn3)cc2)o1 (single isomer, unassigned) [Example 12]"
tested_on = "primary human T-cells"
assay_readout = "pEC50"
comparison_symbol = "="
measured = 6.44

[[record]]
molecule = "CC(C)(C#N)c1nnc(-c2cc3c(cc2F)C(F)(F)C[C@@H](N)C(=O)N3Cc2ccc(-c3ccc(OC(F)F)cn3)cc2)o1 (single isomer, unassigned) [Example 41]"
tested_on = "primary human T-cells"
assay_readout = "pEC50"
comparison_symbol = "="
measured = 6.05

[[record]]
molecule = "CC(C)(c1nnc(-c2cc3c(cc2F)C(F)(F)C[C@@H](N)C(=O)N3Cc2ccc(-c3ccc(OC(F)(F)F)cn3)cc2)o1)S(C)(=O)=O (single isomer, unassigned) [Example 26]"
tested_on = "primary human T-cells"
assay_readout = "pEC50"
comparison_symbol = "="
measured = 6.52

[[record]]
molecule = "CC(C)(c1nnc(-c2cc3c(cc2F)C(F)(F)CC(N)C(=O)N3Cc2ccc(Oc3ccccc3)cc2)o1)S(C)(=O)=O (racemic) [Example 5]"
tested_on = "primary human T-cells"
assay_readout = "pEC50"
comparison_symbol = "="
measured = 5.63

